- target.or.system: EGFR (human) (UniProt P00533)
- Sequence (P00533 whole entry, looked up): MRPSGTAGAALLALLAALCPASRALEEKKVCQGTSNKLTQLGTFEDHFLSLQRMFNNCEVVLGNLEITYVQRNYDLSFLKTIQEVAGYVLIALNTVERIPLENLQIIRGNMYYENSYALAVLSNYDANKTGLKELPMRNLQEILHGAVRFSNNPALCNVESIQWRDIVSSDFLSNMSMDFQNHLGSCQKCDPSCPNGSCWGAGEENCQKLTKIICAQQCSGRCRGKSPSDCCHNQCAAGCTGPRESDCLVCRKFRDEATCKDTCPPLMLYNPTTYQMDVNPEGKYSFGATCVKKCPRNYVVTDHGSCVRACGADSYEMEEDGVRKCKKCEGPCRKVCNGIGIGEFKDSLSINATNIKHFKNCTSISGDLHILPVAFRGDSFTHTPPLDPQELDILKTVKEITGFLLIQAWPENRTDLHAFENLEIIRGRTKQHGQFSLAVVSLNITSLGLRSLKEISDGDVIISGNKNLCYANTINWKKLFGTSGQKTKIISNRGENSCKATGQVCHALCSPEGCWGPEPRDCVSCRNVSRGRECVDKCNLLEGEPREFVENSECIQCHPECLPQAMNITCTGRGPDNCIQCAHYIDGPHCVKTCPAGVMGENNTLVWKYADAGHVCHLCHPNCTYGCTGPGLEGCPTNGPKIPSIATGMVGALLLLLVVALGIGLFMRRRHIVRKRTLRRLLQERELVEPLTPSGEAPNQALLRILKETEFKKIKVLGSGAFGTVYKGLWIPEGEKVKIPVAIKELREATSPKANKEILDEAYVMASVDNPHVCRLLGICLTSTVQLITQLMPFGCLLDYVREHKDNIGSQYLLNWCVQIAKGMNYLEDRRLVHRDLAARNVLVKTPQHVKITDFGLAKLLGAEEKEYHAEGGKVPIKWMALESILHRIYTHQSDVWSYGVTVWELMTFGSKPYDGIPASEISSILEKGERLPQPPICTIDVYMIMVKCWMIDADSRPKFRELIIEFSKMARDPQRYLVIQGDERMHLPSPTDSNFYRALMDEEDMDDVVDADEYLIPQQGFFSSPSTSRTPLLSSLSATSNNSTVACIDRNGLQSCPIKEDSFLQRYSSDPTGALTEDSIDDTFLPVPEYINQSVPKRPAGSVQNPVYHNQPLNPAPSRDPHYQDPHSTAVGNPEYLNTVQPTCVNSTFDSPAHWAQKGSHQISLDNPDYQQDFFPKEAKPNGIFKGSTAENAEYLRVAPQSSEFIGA
- recorded.conditions: mda-mb-468, concentration not given here
endpoint.name: inhibition (%)
Give the number; % is assumed, so skip it.

Here's what some known entries look like.
CCOc1ccc([N+](=O)[O-])c2ncnc(O)c12	32.3
COc1ccc([N+](=O)[O-])c2ncnc(O)c12	35.8
O=C(O)[C@H](Nc1ccc([N+](=O)[O-])c2ncnc(O)c12)c1ccccc1	29.2
O=[N+]([O-])c1ccc(Nc2cccc(Cl)c2)c2c(O)ncnc12	32.5
O=[N+]([O-])c1ccc(N2CC=CC2)c2c(O)ncnc12	34.6

Request: Given O=[N+]([O-])c1ccc(NCc2ccccc2)c2c(O)ncnc12 , state its recorded inhibition.
Response: 12.1

Request: Suppose we examine the molecule O=[N+]([O-])c1ccc(Nc2ccc(Cl)cc2)c2c(O)ncnc12 ; what inhibition value has been reported?
Response: 28.6

Request: Look up inhibition: O=[N+]([O-])c1ccc(N2CCCC2)c2c(O)ncnc12
Response: 23.3

Request: Looking for the measured inhibition of CSCC[C@@H](Nc1ccc([N+](=O)[O-])c2ncnc(O)c12)C(=O)O , can you help?
Response: 19.9

Request: Fill in: inhibition of Cc1cccc(Nc2ccc([N+](=O)[O-])c3ncnc(O)c23)c1 is ___
Response: 15.2

Request: Which inhibition is reported for this molecule? COc1ccc(Nc2ccc([N+](=O)[O-])c3ncnc(O)c23)cc1
Response: 75.5

* * *

- target.or.system: EGFR (UniProt P00533)
- Sequence (P00533 whole entry, looked up): as above
- recorded.conditions: concentration not given here
endpoint.name: inhibition
Numeric answer plus unit only.

Request: Item COC(=O)C#Cc1ccc([N+](=O)[O-])cc1 with EGFR (UniProt P00533) - inhibition?
Response: 28%

* * *

- target.or.system: EGFR (UniProt P00533)
- recorded.conditions: concentration not given here
endpoint.name: inhibition (%)
Quick reminder: number only, in %, skip the unit.

Examples with their reported inhibition follow.
O=[N+]([O-])c1ccc(Nc2cccc(Cl)c2)c2c(O)ncnc12	17.1
O=[N+]([O-])c1ccc(N2CCCC2)c2c(O)ncnc12	0
COc1ccc(Nc2ccc([N+](=O)[O-])c3ncnc(O)c23)cc1	12.2

# context switch: different compound, same inhibition
Request: Record O=[N+]([O-])c1ccc(NCc2ccccc2)c2c(O)ncnc12 : what is its inhibition with EGFR (UniProt P00533)?
Response: 5.2

* * *

- target.or.system: EGFR (UniProt P00533)
- recorded.conditions: concentration not given here
# key: entry, value: inhibition
Provide only the numeric value, understood in %.

O=[N+]([O-])c1ccc(Nc2ccc(OCc3ccccc3)cc2)c2c(O)ncnc12	21.1
CSCC[C@@H](Nc1ccc([N+](=O)[O-])c2ncnc(O)c12)C(=O)O	5.6
Cc1cccc(Nc2ccc([N+](=O)[O-])c3ncnc(O)c23)c1	0
O=[N+]([O-])c1ccc(N2CC=CC2)c2c(O)ncnc12	7.9
O=C(O)[C@H](Nc1ccc([N+](=O)[O-])c2ncnc(O)c12)c1ccccc1	6.5
O=[N+]([O-])c1ccc(Nc2ccccc2)c2c(O)ncnc12	17.7
O=[N+]([O-])c1ccc(Nc2ccc(Cl)cc2)c2c(O)ncnc12	18.3
Nc1ccc(Nc2ccc([N+](=O)[O-])c3ncnc(O)c23)cc1	0
COc1ccc([N+](=O)[O-])c2ncnc(O)c12	0

--- query ---
Request: Report inhibition for CCOc1ccc([N+](=O)[O-])c2ncnc(O)c12 tested on EGFR (UniProt P00533).
Response: 3.9
